All values here come from the kinase profiling compilation of Christmann-Franck et al. (2016).

Measured residual activity of individual entries
# ASSAY TARGET: MARK3 (human) (UniProt P27448)
# Sequence (P27448 whole entry, looked up): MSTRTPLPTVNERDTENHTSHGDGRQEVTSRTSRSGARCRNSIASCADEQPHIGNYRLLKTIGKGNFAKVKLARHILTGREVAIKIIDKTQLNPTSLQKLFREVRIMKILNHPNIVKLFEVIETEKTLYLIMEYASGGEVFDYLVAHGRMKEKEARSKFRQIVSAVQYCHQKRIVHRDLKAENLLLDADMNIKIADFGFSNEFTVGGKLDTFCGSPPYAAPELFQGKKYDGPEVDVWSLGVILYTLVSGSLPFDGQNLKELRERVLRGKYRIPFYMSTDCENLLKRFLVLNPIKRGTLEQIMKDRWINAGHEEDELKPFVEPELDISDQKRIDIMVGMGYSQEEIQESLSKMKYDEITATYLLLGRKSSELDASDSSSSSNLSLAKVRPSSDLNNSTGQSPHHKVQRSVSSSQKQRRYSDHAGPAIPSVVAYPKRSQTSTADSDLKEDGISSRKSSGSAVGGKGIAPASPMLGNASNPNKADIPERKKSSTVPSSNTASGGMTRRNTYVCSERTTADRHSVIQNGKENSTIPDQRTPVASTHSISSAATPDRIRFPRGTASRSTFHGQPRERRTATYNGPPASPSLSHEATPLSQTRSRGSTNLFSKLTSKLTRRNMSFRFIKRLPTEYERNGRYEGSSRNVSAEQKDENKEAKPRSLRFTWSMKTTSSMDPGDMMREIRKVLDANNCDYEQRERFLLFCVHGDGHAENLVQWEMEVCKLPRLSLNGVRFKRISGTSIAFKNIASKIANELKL
# PROTOCOL NOTES: radiometric filter-binding kinase assay
# RUN PARAMETERS: compound 10.0 µM
Express your answer in %, writing the number without its unit.

Solved entries:
COMPOUND	residual activity / %
CCCC(CCC)C(=O)O	108
NC(=O)c1cc(-c2ccnc(NC3CCCCC3)c2)nc(N2CCNCC2)c1	15
NC(=O)c1cc2c(-c3cccc(-c4ccccc4)c3)cnc(N)c2s1	26
N#Cc1c(C2CCNCC2)cc(-c2c(O)cccc2OCC2CC2)nc1N	82
Cc1nc(-c2ccc(OCC(C)C)c(C#N)c2)sc1C(=O)O	87

Measured residual activity (MARK3 (human) (UniProt P27448)), entry NC(=O)c1c(NC(=O)C2CC2)sc2c1CCCC2 : 69

Measured residual activity (MARK3 (human) (UniProt P27448)), entry CC(C)C[C@H](NC(=O)CNC(=O)c1cc(Cl)ccc1Cl)B1OC(=O)CC(CC(=O)O)(C(=O)O)O1 (stereo not given in full) : 72

Measured residual activity (MARK3 (human) (UniProt P27448)), entry Cc1ccc(=O)n(-c2ccccc2)c1 : 108

Measured residual activity (MARK3 (human) (UniProt P27448)), entry O=C1Nc2nc(-c3c(O)cccc3OCC3CC3)cc(C3CCCNC3)c2CO1 (stereo not given) : 94

* * *

Measured residual activity of individual entries
# ASSAY TARGET: ZAP70 (human)
# PROTOCOL NOTES: radiometric filter-binding kinase assay
# RUN PARAMETERS: compound 10.0 µM
Express your answer in %, writing the number without its unit.

>>> print(df.to_string())
                                   compound  observed_measurement
0  NC(=O)c1cc(-c2ccnc(NC3CCCCC3)c2)nc(N2CCNCC2)c1                   109

Record COc1cc(C(=O)N2CCOCC2)c(F)cc1Nc1ncc(C(F)(F)F)c(NC2CC2)n1 . Reported residual activity: 86

Record CC(C)C[C@H](NC(=O)CNC(=O)c1cc(Cl)ccc1Cl)B1OC(=O)CC(CC(=O)O)(C(=O)O)O1 (stereo not given in full) . Reported residual activity: 84

Record CCCCCc1ccc(/C=C/[C@H](O)[C@@H](CO)NC)cc1 . Reported residual activity: 92

Record CCn1c(-c2nonc2N)nc2cncc(CNC3CCNCC3)c21 . Reported residual activity: 84

Record COC(=O)/C=C/C(=O)OC . Reported residual activity: 116

Record O=C(NOCC(O)CO)c1ccc(F)c(F)c1Nc1ccc(I)cc1Cl (stereo not given) . Reported residual activity: 98

Record C=CC(=O)N1CCC[C@@H](n2nc(-c3ccc(Oc4ccccc4)cc3)c3c(N)ncnc32)C1 . Reported residual activity: 101

Record CC(C)(C#N)c1ccc(N2C(=O)OCc3cnc4ccc(-c5cnc6ccccc6c5)cc4c32)cc1 . Reported residual activity: 77

Record O=S(=O)(c1ccc(F)c2nonc12)N1CCN(c2ncc(C(F)(F)F)cc2Cl)CC1 . Reported residual activity: 85

* * *

# Tested on: ROCK2 (rat)
# PROTOCOL NOTES: radiometric filter-binding kinase assay
# RUN PARAMETERS: compound 10.0 µM; accession and sequence are those of the human protein
VALUE KIND: residual activity (%)
Express your answer in %, writing the number without its unit.

Solved entries:
COMPOUND	residual activity (%)
C=CC(=O)N1CCC[C@@H](n2nc(-c3ccc(Oc4ccccc4)cc3)c3c(N)ncnc32)C1	69
O=C(NOCC(O)CO)c1ccc(F)c(F)c1Nc1ccc(I)cc1Cl (stereo unspecified)	103
Cc1cccc(Nc2nn(C)c3ncnc(N)c23)c1	106
CC(C)C[C@H](NC(=O)CNC(=O)c1cc(Cl)ccc1Cl)B1OC(=O)CC(CC(=O)O)(C(=O)O)O1 (stereo partly specified)	76
NC(=O)c1ccc(-c2ccc(Oc3cncc4sc(-c5nn[nH]n5)cc34)cc2)cc1	38
CN1C(=O)[C@@H](Cc2c[nH]c3ccccc23)NC1=S	97
CCCC(CCC)C(=O)O	97
CC1=C(CO)C(=O)O[C@@H]([C@@H](C)[C@H]2CC[C@H]3[C@@H]4C[C@H]5O[C@]56[C@@H](O)C=CC(=O)[C@]6(C)C4CC[C@]23C)C1 (stereo partly specified)	112
Cc1ccc(=O)n(-c2ccccc2)c1	84
c1ccc2c(-c3cnn4cc(-c5ccc(N6CCNCC6)cc5)cnc34)ccnc2c1	85

Record NCC(=O)Nc1ccc(-n2nc(C(F)(F)F)cc2-c2ccc3c(ccc4ccccc43)c2)cc1 . Reported residual activity: 87

Record FC(F)(F)c1ccc(-c2ccc(Oc3cncc4sc(-c5nn[nH]n5)cc34)cc2)cc1 . Reported residual activity: 93

Record CCNc1nc(Nc2cc(F)c(C(=O)N3CCOCC3)cc2OC)ncc1C(F)(F)F . Reported residual activity: 72

Record N#Cc1c(O)c2c(-c3ccc(-c4ccccc4O)cc3)csc2[nH]c1=O . Reported residual activity: 91

Record Cc1ccc2c(c1)C(=O)[C@@]1(O)CCN(c3ccccc3)C1=N2 . Reported residual activity: 77

Record O=c1c(O)c(-c2ccc(O)c(O)c2)oc2cc(O)c(O)c(O)c12 . Reported residual activity: 56
